Source listed as ChEMBL document CHEMBL1145937.

- TESTED ON: UniProt P32305
- Sequence (P32305 whole entry): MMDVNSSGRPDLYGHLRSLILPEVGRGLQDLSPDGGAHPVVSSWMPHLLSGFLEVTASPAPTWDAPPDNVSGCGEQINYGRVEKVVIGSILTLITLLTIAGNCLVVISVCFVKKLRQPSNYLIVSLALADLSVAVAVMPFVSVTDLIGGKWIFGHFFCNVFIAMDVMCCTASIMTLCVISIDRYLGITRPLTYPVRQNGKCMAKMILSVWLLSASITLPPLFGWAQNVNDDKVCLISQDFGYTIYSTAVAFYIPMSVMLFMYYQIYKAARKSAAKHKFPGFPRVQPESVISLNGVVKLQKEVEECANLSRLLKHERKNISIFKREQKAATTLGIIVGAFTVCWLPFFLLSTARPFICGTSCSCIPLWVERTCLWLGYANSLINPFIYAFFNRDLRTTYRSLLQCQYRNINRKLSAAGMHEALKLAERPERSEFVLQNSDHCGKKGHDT
- METHOD SUMMARY: Binding affinity towards cloned rat 5-hydroxytryptamine 7 receptor was determined using [3H]5-HT as radioligand
Overview of recorded Ki for various compounds
METRIC: Ki

In [3]: df
Out[3]:
                         compound_structure       tested_on  measured_value
0  Cc1cccc(O)c1-c1cccc2c1-c1cccc3c1[C@@H](C2)N(C)CC3  UniProt P32305         25.1 nM
1  Cc1cccc(C#N)c1-c1cccc2c1-c1cccc3c1[C@@H](C2)N(C)CC3  UniProt P32305         3.98 nM
2  COc1cccc(OC)c1-c1cccc2c1-c1cccc3c1[C@@H](C2)N(C)CC3  UniProt P32305         12.6 nM
